Test system: Staphylococcus aureus
Assay: Antibacterial activity against Staphylococcus aureus MRSA ATCC 43300 (CO-ADD:GP_020); MIC in CAMBH media using NBS plates, by Resazurin F(560/590)
Format: functional
Conditions: Concentration 20 uM, ASSAY_TEST Inhibition of Bacterial Growth, detection method Resazurin, Fluorescence (ex560/em590), MEDIA CAMHB, plate type 384well, CORNING #3640, time 18 hr
OBSERVED PROPERTY: Inhibition (%)
Report as a plain number; the unit % is understood.

Guide cases for Inhibition, answers given:
[[record]]
compound = "Nc1cc(-c2ccccc2)ccc1O"
observed_property = "Inhibition"
readout_unit = "%"
result_value = 13.15

[[record]]
compound = "CC(=O)C1C=CC(C)(C(=O)O)C2C=C(C)C(=O)C(C)(O)C12 (stereo not drawn)"
observed_property = "Inhibition"
readout_unit = "%"
result_value = 4.72

[[record]]
compound = "Cc1ccc(/N=N\\c2c(O)ccc3[nH]nnc23)cc1"
observed_property = "Inhibition"
readout_unit = "%"
result_value = -9.42


Tell me its Inhibition on Staphylococcus aureus: CC1(CN2CCCC2)CCC(NC(=O)C(c2ccccc2)c2ccccc2)C(C)(C)O1 (stereo not drawn) 23.4

* * *

The entries below are paired with their reported Inhibition.
Test system: Cryptococcus neoformans
Conditions: Concentration 20 uM; ASSAY_TEST Inhibition of Fungal Growth; detection method Resazurin; Absorption (OD600-OD570); plate type 384well; NBS; CORNING #3640
Description: Antifungal activity against Cryptococcus neoformans H99 ATCC 208821 (CO-ADD:FG_002); MIC in YNB media using NBS plates, by Resazurin OD(600-570)
Entries with a potency or affinity are not part of this list.
Report as a plain number; the unit % is understood.

Guide cases for Inhibition, answers given:
[[record]]
compound = "O=C1CSCc2nc3ccccc3n21"
observed_property = "Inhibition"
result_value = -7.32

[[record]]
compound = "CCOC(=O)c1c[nH]nc1O"
observed_property = "Inhibition"
result_value = 1.44

[[record]]
compound = "CCC(C)N=C(S)Nc1ccccc1 (centres undefined)"
observed_property = "Inhibition"
result_value = -3.02


Tell me its Inhibition on Cryptococcus neoformans: "c1ccc2c(c1)[nH]c1c3ccccc3sc21" -2.59

Tell me its Inhibition on Cryptococcus neoformans: "CCCc1nc(NC(=O)c2ccccc2)nc(NC(=O)c2ccccc2)n1" -9.1

Tell me its Inhibition on Cryptococcus neoformans: COc1ccc(NC2=NC(C)(CO)CS2)cc1 (centres undefined) 5.77

* * *

System: Klebsiella pneumoniae
Conditions: Concentration 20 uM; ASSAY_TEST Inhibition of Bacterial Growth; detection method Absorption (OD600); MEDIA CAMHB; plate type 384well; NBS; CORNING #3640; time 18 hr
Description: Antibacterial activity against Klebsiella pneumoniae MDR ATCC 70063 (CO-ADD:GN_003); MIC in CAMBH media using NBS plates, by OD(600)
Entries with a potency or affinity are not part of this list.
The label depends only on Inhibition: Fulfilled if it is at least 10%, Not fulfilled if it is smaller.

Some solved cases for reference:
[[record]]
given_smiles = "CC1(C)CC(=O)C(CC(=O)c2ccccc2)=C(NNC(=N)N)C1"
assigned_class = "Not fulfilled"

[[record]]
given_smiles = "CC(=O)OCCn1c2nc(=O)[nH]c(=O)c-2nc2cc(C)c(C)cc21"
assigned_class = "Not fulfilled"


Decide: is the reported value of Inhibition for "Oc1nc2[nH]c(Cl)nc(Cl)c-2n1" equal to or greater than 10%? Not fulfilled

Decide: is the reported value of Inhibition for "Nc1nc(N)c(/C=N/c2ccc(Br)cc2)c(Nc2ccc(Br)cc2)n1" equal to or greater than 10%? Not fulfilled

Decide: is the reported value of Inhibition for "N=C(N)Nc1nc2cc([N+](=O)[O-])ccc2[nH]1" equal to or greater than 10%? Fulfilled

Values from ChEMBL document CHEMBL4296182
